Biological target: spike protein of SARS-CoV-2 strain B.1.351 (SARS-CoV-2, UniProt P0DTC2 14-1273)
Experiment: cell-based or functional assay
MEASURED ENDPOINT: IC50 (FRNT neutralisation)

antibody 278 (antibody, V domains shown, also called mAb 278) VH: QVQLVQSGAEVKKPGASVKVSCKASGYIFIRYGISWVRQAPGQGLEWMGWISANNGYTNYAQKLQGRVTMTTDTSTSTAYMELRSLRSDDTAVYYCARDGGILTGYLDYFDHWGQGTLVTVSS VL: DIQMTQSPSSLSASVGDRLTITCRASQSIASYLNWYQQKPGKAPKLLIYAASSLQSGVPSRFSGSGSGTDFTLTISSLQPEDFATYHCQQSYSTLGITFGPGTKVDIK	0.16 µg/mL
antibody 269 (antibody, V domains shown, also called mAb 269) VH: QVQLVESGGGLIQPGGSLRLSCAASGLTVNRNYMSWIRQAPGKGLEWVSVIYSGGSTFYADSVKGRFTISRDNSKNTLSLQMNSLRAEDTAIYYCARDFYEGSFDIWGQGTMVTVSS VL: AIQLTQSPSFLSASIGDRVTITCRASQGISSYLAWYQQKPGKAPKLLIYAASTLQSGVPSRFSGSGSGTEFTLTISSLQPEDFASYYCQQLNSYPAPVFGPGTKVDIK	> 10 µg/mL
antibody 318 (antibody, V domains shown, also called mAb 318) VH: QVQLVQSGPEVKKPGTSVKVSCKASGFTLTSSAMQWVRQARGQRLEWIGWIVVGSGNTNYAQKFQERVTITRDMSTSTAYMELSSLRSEDTAVYYCAAGRGYNSDFDYWGQGTLVTVSS VL: AIRMTQSPGTLSLSPGERATLSCRASQSVSSSYLAWYQQRPGQAPRLLIYGTSSRATGIPDRFSGSGSGTDFTLTISRLEPEDFAVYYCQQYGYSVYTFGQGTKVDIK	0.019 µg/mL
antibody 170 (antibody, V domains shown) VH: QVQLVESGAEVKKPGESLKISCKGSGYSFTSYWIVWVRQMPGKGLEWMGIIYPGDSDTKYSPSFQGQVSISADKPISTAYLQWSRLKASDTAMYYCARLGNWLVDYWGQGTLVTVSS VL: DIVMTQSPLSLSVTPGQPASISCKSSQSLLHSDGKTYLYWYLQKPGQPPQLLMYEVSNRFSGVPDRFSGSGSGTDFTLKISRVESEDVGVYYCMQSIQLPRGITFGQGTRLEIK	> 10 µg/mL
antibody 132 (antibody, V domains shown) VH: QVQLQQWGAGLLKPSETLSLTCAVYGGSFSGYYWSWIRQPPGKGLEWIGEINHSGSTNYNPSLKSRVTISVDTSKNQFSLKLSSVTAADTAVYYCARTDYYDSIDWGQGTLVTVSS VL: QSVLTQEPSLTVSPGGTVTLTCGSSTGAVTSGHYPYWFQQKPGQVPRTLIYDTRNKHSWTPARFSGSLLGGKAALTLSGAQPEDEAEYYCLLSSSGARVFGGGTKLTVL	> 10 µg/mL
antibody 58 (antibody, V domains shown, also called mAb 58) VH: QVQLVESGGGLVQPGRSLRLSCAASGFTFDDYAMHWVRQPPGKGLEWVSGVSWNSGTIGYADSVKGRFIISRDNAKNSLYLQMNSLKAEDTALYYCAREVGGTFGVLISREGGLDYWGQGTLVTVSS VL: SYELTQPPSVSVAPGQTARITCGGNTIGSKSVHWYQQRPGQAPVLVVYDDSDRPSGIPERFSGSNSGNTATLTISRVEAGDEADYYCQVWDSSSDRVVFGGGTKLTVL	0.136 µg/mL
antibody 398 (antibody, V domains shown, also called mAb 398) VH: QVQLVESGGGLVQPGGSLRLSCAASGFTVSSNYMTWVRQAPGKGLEWVSVIYSGGSTYYADSVKGRFTISRDNSKNTLYLQMNSLRADDTAVYYCARDSTADYDFWSGYYVGAFHIWGQGTMVTVSS VL: QTVLTQPASVSGSPGQSITISCTGTSSDVGGYNYVSWYQQHPGKAPKLMIYEVTKRPSGVPDRFSGSKSGNTASLTVSGLQAEDEADYYCSSYAGSNNWVFGGGTKLTVL	> 10 µg/mL
